The following compounds are shown together with reported Post-emergence herbicidal effect SETVI values.
- Test system: Setaria viridis
- Test Name: Post-emergence herbicidal effect
- Assay type: in vivo
- Experimental Parameters: Dosage 320 g/ha, one-leaf stage, visual scoring after ca. 3 weeks vs untreated controls, 100% = plants have died
Write it as a number; the unit % goes unstated.

Some compounds with recorded Post-emergence herbicidal effect SETVI:
N#Cc1cnc(N[C@@H]2CCCc3ccccc32)nc1N = 95
Cc1ccc2c(c1)[C@H](Nc1nc(C)c(C#N)c(N)n1)[C@@H](C)C2 = 90
Cc1nc(N[C@@H]2CCCc3ccccc32)nc(N)c1C#N = 90
Cc1ccc2c(c1)[C@H](Nc1ncc(Cl)c(N)n1)[C@@H](C)C2 = 90

Query: If you can, please state the reported Post-emergence herbicidal effect SETVI value of "Nc1nc(N[C@@H]2CCCc3ccccc32)ncc1Br" .
Result: 80

Query: Do the same for "Cc1ccc2c(c1)[C@H](Nc1nc(C)c([N+](=O)[O-])c(N)n1)[C@@H](C)C2" please
Result: 85

Query: Do the same for "Cc1ccc2c(c1)[C@H](Nc1ncc(Br)c(N)n1)[C@@H](C)C2" please
Result: 87

Query: Do the same for "CC[C@H]1Cc2ccccc2[C@@H]1Nc1ncc(C#N)c(N)n1" please
Result: 90

Query: Do the same for "Nc1nc(N[C@@H]2CCCc3ccccc32)ncc1Cl" please
Result: 80
